testedTarget: T1, 6xHis-SlmA WT (Escherichia coli, UniProt P0C093 1-198)
T1 sequence: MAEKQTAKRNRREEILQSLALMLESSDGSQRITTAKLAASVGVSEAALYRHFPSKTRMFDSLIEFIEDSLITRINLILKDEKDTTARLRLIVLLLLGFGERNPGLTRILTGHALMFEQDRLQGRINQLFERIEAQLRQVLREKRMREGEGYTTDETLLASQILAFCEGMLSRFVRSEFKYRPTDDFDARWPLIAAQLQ
testMethodNotes: BLI; kon 3.24e4 1/(M*s), koff 2.04e-3 1/s, R2 0.98; BLI in 1x Pol buffer: 50 mM HEPES-NaOH pH 8.0, 200 mM KCl, 10 mM MgCl2, room temperature; 50 nM biotinylated SBS17 on streptavidin tips
experimentalParameters: protein: recombinant; tags: N-terminal 6xHis; chain copies: 4; blunt
attributeMeasured: Kd (µM)
Numbers only here, please. The scale is µM.

Ask: Which Kd value is on record for biotinylated SBS17-30mer (dsDNA) DNA 1: CAAAAGTAAGTAAATGGTCACTAACGTTGA DNA 2: TCAACGTTAGTGACCATTTACTTACTTTTG ?
Reply: 0.0629
